protocolDescription: yeast display, Sf9 membrane polyspecificity reagent, FACS + sequencing; frameworks hold sequencing errors
experimentalEndpoint: polyreactivity (PSR sort gate)

Answered cases to consult:
QDQLVESGGGLVQAGGSLRLSCAASRSIFYGYATRSYRQEPGKESELVAAISYSGDRTYYADSVKGRFTISRDNAKNTVYLQMNSLKPEDTAVYYCAAESRGVGAYYYRGQGTQVTVSS ... high polyreactivity
QVQLVESGGGLVQAGGSLRLSCAASGSIFRQYAMGWYRQAPGKERELVAAITYSGGNTYYADSVKGRFTISRDNAKNTVYVQMNSLKPEDTAVYYCAADYGSRSWEYNYWGQGTQVTVSS ... low polyreactivity
QVQLVESGGGLVQAGGSLRLSCAASGRIFPYNAMGWYRQAPGKERELVAAINWSGGSTYYADSVKGRFTISRDNAKNTVYLQMNSLKPEDTAVYYCAAVYRYNSDPDYDYWGQGTQVTVSS ... high polyreactivity
QVQIVESGGGLVQAGGSLRLSCAASGRIFYAYAMGWYRQAPGKERELVAAISSGGSTKYADSVKGRFTISRDNAKNTVYLQMNSLKPEDTAVYYCNADATALSFGTLFDYWGQGTQVTVSS ... low polyreactivity

Now consider the entry below.
Input line: Tell me its polyreactivity (PSR sort gate) given `QVQLVESGGGLVQAGGSLRLTCAASGGTLDYNAMGWYRQAPGKERELVAPISAGADGTYYADSVKGRFTISRDNAKNTVYLQMNSLKPEDSAVYYCAARPKNNWARTNFGIRYNDWGQGTQVTVSS` as the entry.
Output line: high polyreactivity
